# Measured Target: ZAP70 (Homo sapiens, UniProt P43403)
# Sequence (P43403 whole entry): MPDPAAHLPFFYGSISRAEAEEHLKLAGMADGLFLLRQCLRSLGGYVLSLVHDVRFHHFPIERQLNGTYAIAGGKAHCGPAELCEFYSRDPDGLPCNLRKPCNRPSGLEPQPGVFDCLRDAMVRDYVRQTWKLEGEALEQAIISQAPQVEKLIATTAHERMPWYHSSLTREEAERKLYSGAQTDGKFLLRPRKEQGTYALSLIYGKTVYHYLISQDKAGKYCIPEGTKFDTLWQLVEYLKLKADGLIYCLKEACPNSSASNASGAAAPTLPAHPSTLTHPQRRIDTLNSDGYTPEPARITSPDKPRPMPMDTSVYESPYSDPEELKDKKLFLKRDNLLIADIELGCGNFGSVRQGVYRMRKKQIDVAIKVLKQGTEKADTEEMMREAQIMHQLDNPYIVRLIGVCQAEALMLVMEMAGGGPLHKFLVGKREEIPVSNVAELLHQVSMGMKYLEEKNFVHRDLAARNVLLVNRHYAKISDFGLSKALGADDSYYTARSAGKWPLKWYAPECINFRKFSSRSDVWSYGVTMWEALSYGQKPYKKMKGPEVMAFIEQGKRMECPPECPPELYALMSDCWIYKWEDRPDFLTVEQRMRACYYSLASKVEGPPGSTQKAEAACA
# Experiment Summary: Tyrosine kinase inhibition assay
# Type: biochemical
# Experimental Parameters: single concentration 1.0 μM, read-out: percent inhibition
Measured Quantity: inhibition at 1 µM (%)
Form entry: value (%) — number only.

Q) Determine its reported inhibition at 1 µM: COc1cc2nccc(Oc3ccc(NC(=O)C4(C(=O)Nc5ccc(F)cc5)CC4)cc3)c2cc1OC [Cabozantinib, reference compound]
A) 13

Q) Determine its reported inhibition at 1 µM: COc1cc2nccc(Oc3ccc(NC(=O)C4(NC(=O)c5ccc(F)cc5)CC4)cc3F)c2cc1Oc1ccc(N)cc1F
A) 6

Q) Determine its reported inhibition at 1 µM: COc1cc2nccc(Oc3ccc(NC(=O)C4(NC(=O)c5ccc(F)cc5)CC4)cc3F)c2cc1Oc1c(F)cc(N)cc1F
A) 9

Q) Determine its reported inhibition at 1 µM: COc1cc2nccc(Oc3ccc(NC(=O)C4(NC(=O)c5ccc(F)cc5)CC4)cc3F)c2cc1OC
A) 14

Q) Determine its reported inhibition at 1 µM: COc1cc2nccc(Oc3ccc(NC(=O)C4(C(=O)Nc5ccc(F)cc5)CC4)cc3F)c2cc1Oc1ccc(N)cc1F
A) 5

----------
# Measured Target: MUSK (Homo sapiens, UniProt O15146)
# Sequence (O15146 24-869): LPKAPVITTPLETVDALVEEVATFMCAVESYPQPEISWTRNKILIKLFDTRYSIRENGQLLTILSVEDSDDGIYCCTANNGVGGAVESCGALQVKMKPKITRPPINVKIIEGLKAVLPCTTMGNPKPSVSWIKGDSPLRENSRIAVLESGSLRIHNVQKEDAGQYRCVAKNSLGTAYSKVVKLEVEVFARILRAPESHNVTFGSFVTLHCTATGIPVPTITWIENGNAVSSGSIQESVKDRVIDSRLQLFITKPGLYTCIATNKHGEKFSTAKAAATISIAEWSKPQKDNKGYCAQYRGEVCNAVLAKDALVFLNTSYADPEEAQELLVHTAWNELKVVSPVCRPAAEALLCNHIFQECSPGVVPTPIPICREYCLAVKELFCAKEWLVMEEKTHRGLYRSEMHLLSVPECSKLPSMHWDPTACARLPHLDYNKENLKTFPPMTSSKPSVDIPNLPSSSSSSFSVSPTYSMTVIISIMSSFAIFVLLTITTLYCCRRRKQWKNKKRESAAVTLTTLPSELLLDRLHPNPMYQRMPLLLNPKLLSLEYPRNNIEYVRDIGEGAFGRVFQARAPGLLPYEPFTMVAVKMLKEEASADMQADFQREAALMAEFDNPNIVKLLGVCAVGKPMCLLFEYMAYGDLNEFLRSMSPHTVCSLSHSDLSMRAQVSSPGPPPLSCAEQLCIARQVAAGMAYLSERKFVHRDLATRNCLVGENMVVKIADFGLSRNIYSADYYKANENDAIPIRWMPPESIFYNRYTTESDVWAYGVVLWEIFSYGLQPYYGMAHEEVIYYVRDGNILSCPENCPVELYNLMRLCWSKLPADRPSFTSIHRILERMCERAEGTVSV
# Experiment Summary: Tyrosine kinase inhibition assay
# Assay type: biochemical
# Experimental Parameters: single concentration 1.0 μM, read-out: percent inhibition
Decide using inhibition at 1 µM: a value greater than or equal to 80% is fulfilled, a smaller one is not fulfilled.

Q) Decide: inhibition at 1 µM of COc1cc2nccc(Oc3ccc(NC(=O)C4(NC(=O)c5ccc(F)cc5)CC4)cc3F)c2cc1Oc1c(F)cc(N)cc1F >= 80%?
A) not fulfilled

Q) Decide: inhibition at 1 µM of COc1cc2nccc(Oc3ccc(NC(=O)C4(NC(=O)c5ccc(F)cc5)CC4)cc3F)c2cc1OC >= 80%?
A) not fulfilled

Q) Decide: inhibition at 1 µM of COc1cc2nccc(Oc3ccc(NC(=O)C4(C(=O)Nc5ccc(F)cc5)CC4)cc3)c2cc1OC [Cabozantinib, reference compound] >= 80%?
A) fulfilled

Q) Decide: inhibition at 1 µM of COc1cc2nccc(Oc3ccc(NC(=O)C4(C(=O)Nc5ccc(F)cc5)CC4)cc3F)c2cc1Oc1ccc(N)cc1F >= 80%?
A) fulfilled

Q) Decide: inhibition at 1 µM of COc1cc2nccc(Oc3ccc(NC(=O)C4(NC(=O)c5ccc(F)cc5)CC4)cc3F)c2cc1Oc1ccc(N)cc1F >= 80%?
A) not fulfilled

----------
# Measured Target: UniProt P14616
# Sequence (P14616 27-1297): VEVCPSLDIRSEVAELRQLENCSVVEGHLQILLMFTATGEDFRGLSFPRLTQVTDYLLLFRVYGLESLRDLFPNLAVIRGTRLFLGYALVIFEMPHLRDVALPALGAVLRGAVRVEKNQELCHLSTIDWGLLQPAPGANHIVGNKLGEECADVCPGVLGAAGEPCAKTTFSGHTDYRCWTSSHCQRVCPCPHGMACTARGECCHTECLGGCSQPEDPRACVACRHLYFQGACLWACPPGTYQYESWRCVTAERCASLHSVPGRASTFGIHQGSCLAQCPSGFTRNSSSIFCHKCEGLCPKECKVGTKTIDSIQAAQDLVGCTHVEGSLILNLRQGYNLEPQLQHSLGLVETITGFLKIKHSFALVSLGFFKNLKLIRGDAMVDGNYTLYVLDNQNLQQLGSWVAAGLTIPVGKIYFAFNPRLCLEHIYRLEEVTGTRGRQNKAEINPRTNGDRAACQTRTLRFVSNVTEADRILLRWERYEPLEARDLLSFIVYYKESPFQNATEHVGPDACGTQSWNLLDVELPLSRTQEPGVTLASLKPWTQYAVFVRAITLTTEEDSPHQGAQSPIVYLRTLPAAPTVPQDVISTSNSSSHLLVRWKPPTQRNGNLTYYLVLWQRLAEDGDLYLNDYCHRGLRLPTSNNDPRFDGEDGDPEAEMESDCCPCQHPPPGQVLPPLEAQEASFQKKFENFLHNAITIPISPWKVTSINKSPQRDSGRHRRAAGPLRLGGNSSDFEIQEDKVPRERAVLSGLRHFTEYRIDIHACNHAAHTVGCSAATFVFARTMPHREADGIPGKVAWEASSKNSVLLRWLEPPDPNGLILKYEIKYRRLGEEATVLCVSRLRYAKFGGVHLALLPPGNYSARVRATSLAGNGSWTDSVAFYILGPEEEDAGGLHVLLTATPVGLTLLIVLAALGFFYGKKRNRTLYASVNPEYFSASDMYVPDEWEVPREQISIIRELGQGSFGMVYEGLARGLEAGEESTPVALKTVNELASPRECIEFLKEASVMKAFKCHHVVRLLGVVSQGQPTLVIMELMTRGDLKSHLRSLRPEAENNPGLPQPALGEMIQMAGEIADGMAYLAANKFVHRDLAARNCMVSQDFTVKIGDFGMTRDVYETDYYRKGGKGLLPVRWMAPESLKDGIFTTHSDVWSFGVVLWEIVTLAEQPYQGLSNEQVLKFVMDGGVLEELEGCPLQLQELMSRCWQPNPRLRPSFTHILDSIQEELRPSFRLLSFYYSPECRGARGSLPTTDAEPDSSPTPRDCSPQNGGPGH
# Experiment Summary: Tyrosine kinase inhibition assay
# Type: biochemical
# Experimental Parameters: single concentration 1.0 μM, read-out: percent inhibition
Assign inhibition at 1 µM to each entry below.
Form entry: value (%) — number only.

Q) Identify measured inhibition at 1 µM obtained with UniProt P14616 for COc1cc2nccc(Oc3ccc(NC(=O)C4(NC(=O)c5ccc(F)cc5)CC4)cc3F)c2cc1Oc1c(F)cc(N)cc1F .
A) 93

Q) Identify measured inhibition at 1 µM obtained with UniProt P14616 for COc1cc2nccc(Oc3ccc(NC(=O)C4(NC(=O)c5ccc(F)cc5)CC4)cc3F)c2cc1Oc1ccc(N)cc1F .
A) 93

Q) Identify measured inhibition at 1 µM obtained with UniProt P14616 for COc1cc2nccc(Oc3ccc(NC(=O)C4(NC(=O)c5ccc(F)cc5)CC4)cc3F)c2cc1OC .
A) 80

Q) Identify measured inhibition at 1 µM obtained with UniProt P14616 for COc1cc2nccc(Oc3ccc(NC(=O)C4(C(=O)Nc5ccc(F)cc5)CC4)cc3)c2cc1OC [Cabozantinib, reference compound] .
A) 38

Q) Identify measured inhibition at 1 µM obtained with UniProt P14616 for COc1cc2nccc(Oc3ccc(NC(=O)C4(C(=O)Nc5ccc(F)cc5)CC4)cc3F)c2cc1Oc1ccc(N)cc1F .
A) 97
